Hello, the source for this data is ChEMBL document CHEMBL1130600, in case you need it.

- Organism: Homo sapiens
- test.description: Compound was tested for its ability to inhibit the thrombin-induced platelet aggregation in washed human platelets
- Type: functional
readout.type: IC50 (µM)
Answer format: numeric, µM implied, no suffix.

INSERT INTO measurements (compound, measured) VALUES
  ('CC(=O)N[C@H](CCCCN)C(=O)N1C2CC=C(C(=O)NCCC(=O)O)C1CC2 (stereo not given in full)', 160);

Exam item: // Input: CC(=O)N[C@H](CCCCN)C(=O)N1CCCC(C(=O)NCCC(=O)O)C1 (stereo not given in full) . Output its IC50 only.
Marked response: 20

Exam item: // Input: NC(N)=NCCCC(N)C(=O)N1C2CCC(C(=O)NC(CC(=O)O)C(=O)NC(CO)C(=O)O)C1CC2 (stereo not given) . Output its IC50 only.
Marked response: 23

Exam item: // Input: CC(=O)NC(CCCCN)C(=O)N1C2CCC(C(=O)NCCC(=O)O)C1CC2 (stereo not given) . Output its IC50 only.
Marked response: 370

Exam item: // Input: CC(=O)N[C@H](CCCCN)C(=O)N1C2CCC(C(=O)NCCC(=O)O)C1CC2 (stereo not given in full) . Output its IC50 only.
Marked response: 30

* * *

- Species on record: Homo sapiens
- test.description: Compound was tested for its ability to inhibit the thrombin-induced platelet aggregation in washed human platelets
- Format: functional
Below, each entry is listed with its recorded pIC50.
Value format note: pIC50 is -log10 of concentration (mol/L); just state the number.

Some solved cases for reference:
INSERT INTO measurements (molecule, readout_type, measured) VALUES
  ('CC(=O)NC(CCCCN)C(=O)N1CCCC(C(=O)NCCC(=O)O)C1 (stereo unspecified)', 'pIC50', 4.22),
  ('NC(N)=NCCCC(N)C(=O)N1C2CCC1C(C(=O)NC(CC(=O)O)C(=O)NC(CO)C(=O)O)C2 (stereo unspecified)', 'pIC50', 3.40);

Now examine the next entry.
Exam item: // Input: NC(N)=NCCCC(N)C(=O)N1C2CC=C(C(=O)NC(CC(=O)O)C(=O)NC(CO)C(=O)O)C1CC2 (stereo unspecified) . Output its pIC50 only.
Marked response: 3.57

* * *

Below, each entry is listed with its recorded IC50.
- Species: Homo sapiens
- test.description: Compound was tested for its ability to inhibit the thrombin-induced platelet aggregation in washed human platelets
- Type: functional

INSERT INTO assay_data (compound, readout_type, measured) VALUES
  ('CC(=O)N[C@H](CCCCN)C(=O)N1C2CCC1C(C(=O)NCCC(=O)O)C2 (stereo partly drawn)', 'IC50', '> 500 µM'),
  ('CC(=O)NC(CCCCN)C(=O)N1C2CCC1C(C(=O)NCCC(=O)O)C2 (stereo not drawn)', 'IC50', '> 500 µM');

Now examine the next entry.
Exam item: // Input: CC(=O)NC(CCCCN)C(=O)N1C2CC=C(C(=O)NCCC(=O)O)C1CC2 (stereo not drawn) . Output its IC50 only.
Marked response: > 500 µM
